Values were extracted from PubChem BioAssay (NCATS).

- Test system: CP238
- assay.remarks: qHTS profiling for inhibitors of Plasmodium falciparum proliferation (AID 504749); note: nearly all actives have a fitted effect of over 60% in size
- measurement.conditions: P. falciparum in erythrocytes, SYBR Green DNA, 72 h; series mostly up to 28.7 µM
Records with an inconclusive call do not appear. Activity calls are given as the source filed them. Calls come from the whole dose curve; as a rule, active = well fitted inhibition curve with a large enough effect; inconclusive = small, poorly fitted or top-dose-only effect; inactive = flat fitted curve, though single readings scatter.
Write down one outcome, taken from active, inactive

Some solved cases for reference:
- compound: "C[C@]12CCC(=O)C=C1CC[C@@H]1[C@@H]2CC[C@@]2(C)[C@H]1CC[C@]2(O)C(=O)CO"
  label.class: "inactive"
- compound: "O=C(O)CCCCCCCC(=O)O"
  label.class: "inactive"
- compound: "CN(C(=O)CCCOc1ccc2[nH]c(=O)ccc2c1)C1CCCCC1"
  label.class: "inactive"
- compound: "COC(=O)[C@@H](N)Cc1ccc(O)c(O)c1"
  label.class: "inactive"
- compound: "CCN(CC)CCNC(=O)c1ccc(NC(C)=O)cc1"
  label.class: "inactive"
- compound: "CN(C)C(=O)Oc1ccc[n+](C)c1"
  label.class: "inactive"
- compound: "NC(=O)N1c2ccccc2C=Cc2ccccc21"
  label.class: "inactive"
- compound: "CCCOc1ccccc1-c1nc2n[nH]nc2c(=O)[nH]1"
  label.class: "inactive"
- compound: "NC(=O)c1cn(Cc2c(F)cccc2F)nn1"
  label.class: "inactive"
- compound: "CC(C)NNC(=O)c1ccncc1"
  label.class: "inactive"

Can you look up the reported call for NC1=NCC2c3ccccc3Cc3ccccc3N12 (centres undefined) for me?
inactive

Can you look up the reported call for CN(C)C(=O)Oc1cccc([N+](C)(C)C)c1 for me?
inactive

Can you look up the reported call for CCCCNC(=O)NS(=O)(=O)c1ccc(C)cc1 for me?
inactive

###

- System: FAB9
- assay.remarks: qHTS profiling for inhibitors of Plasmodium falciparum proliferation (AID 504749); note: nearly all actives have a fitted effect of over 60% in size
- measurement.conditions: P. falciparum in erythrocytes, SYBR Green DNA, 72 h; series mostly up to 28.7 µM
Results filed as inconclusive are left out. Activity calls are given as the source filed them. The call rests on the fitted dose curve; in most records, active means well fitted inhibition curve with a large enough effect; inconclusive means small, poorly fitted or top-dose-only effect; inactive means flat fitted curve, though single readings scatter.
Write down one outcome, taken from active, inactive

Some solved cases for reference:
- compound: "OC(CCN1CCCCC1)(c1ccccc1)C1CCCCC1 (configuration not stated)"
  target.entity: "FAB9"
  label.class: "inactive"
- compound: "CC(C)COCC(CN(Cc1ccccc1)c1ccccc1)N1CCCC1 (configuration not stated)"
  target.entity: "FAB9"
  label.class: "inactive"
- compound: "NC(=O)c1cn(Cc2c(F)cccc2F)nn1"
  target.entity: "FAB9"
  label.class: "inactive"
- compound: "COc1cc2c(cc1OC)-c1cc(=Nc3c(C)cc(C)cc3C)n(C)c(=O)n1CC2"
  target.entity: "FAB9"
  label.class: "active"

Can you look up the reported call for CC1=C(C)C(=O)C(CCCCC#CCCCC#CCO)=C(C)C1=O for me?
inactive

Can you look up the reported call for CCN(CC)CCNC(=O)c1ccc(NC(C)=O)cc1 for me?
inactive

Can you look up the reported call for CCN(CC)CC(=O)Nc1c(C)cccc1C for me?
inactive

Can you look up the reported call for CN(C)CCOC(=O)COc1ccc(Cl)cc1 for me?
inactive

Can you look up the reported call for Cc1scc2c1N(C(=O)CN1CCN(C)CC1)c1ccccc1NC2=O for me?
inactive

Can you look up the reported call for Nc1c2c(nc3ccccc13)CCCC2O (configuration not stated) for me?
inactive

Can you look up the reported call for CCN(CC)CCCN(c1ccccc1)C1Cc2ccccc2C1 for me?
active

Can you look up the reported call for CC(=O)Nc1nnc(S(N)(=O)=O)s1 for me?
inactive

###

- Tested on: CP237
- assay.remarks: qHTS profiling for inhibitors of Plasmodium falciparum proliferation (AID 504749); note: nearly all actives have a fitted effect of over 60% in size
- measurement.conditions: P. falciparum in erythrocytes, SYBR Green DNA, 72 h; series mostly up to 28.7 µM
Records with an inconclusive call do not appear. Calls of active or inactive are those of the source. The call rests on the fitted dose curve; in most records, active means well fitted inhibition curve with a large enough effect; inconclusive means small, poorly fitted or top-dose-only effect; inactive means flat fitted curve, though single readings scatter.
Write down one outcome, taken from active, inactive

Some solved cases for reference:
- compound: "NC(=O)N1c2ccccc2C=Cc2ccccc21"
  label.class: "inactive"
- compound: "COc1ccc(CN(CCN(C)C)c2ccccn2)cc1"
  label.class: "active"
- compound: "Cc1cc(C)c(/C=C2\\C(=O)Nc3ccccc32)[nH]1"
  label.class: "inactive"
- compound: "CCOC(=O)C1=C(C)NC(C)=C(C(=O)OC)C1c1cccc(Cl)c1Cl (stereo unspecified)"
  label.class: "inactive"

We now examine a further compound.
Can you look up the reported call for C#CCN(C)CCCOc1ccc(Cl)cc1Cl for me?
inactive

###

- target.entity: Hexokinase-4 (Homo sapiens) + Glucokinase regulatory protein (Homo sapiens) (UniProt P35557+Q14397)
- Sequence (P35557 whole entry, looked up): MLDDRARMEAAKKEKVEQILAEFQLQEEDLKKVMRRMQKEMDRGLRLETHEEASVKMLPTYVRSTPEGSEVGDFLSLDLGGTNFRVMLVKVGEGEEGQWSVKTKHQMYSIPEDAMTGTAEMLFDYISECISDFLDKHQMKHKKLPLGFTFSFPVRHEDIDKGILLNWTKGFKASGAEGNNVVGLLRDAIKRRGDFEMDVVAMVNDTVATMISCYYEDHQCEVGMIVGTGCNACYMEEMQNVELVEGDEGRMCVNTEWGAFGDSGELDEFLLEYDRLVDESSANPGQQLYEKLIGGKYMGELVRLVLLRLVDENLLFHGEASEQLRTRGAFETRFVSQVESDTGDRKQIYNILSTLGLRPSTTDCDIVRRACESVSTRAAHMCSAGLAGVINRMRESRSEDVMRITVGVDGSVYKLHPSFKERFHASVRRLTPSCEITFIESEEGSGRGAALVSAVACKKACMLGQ
- Sequence (Q14397 whole entry, looked up): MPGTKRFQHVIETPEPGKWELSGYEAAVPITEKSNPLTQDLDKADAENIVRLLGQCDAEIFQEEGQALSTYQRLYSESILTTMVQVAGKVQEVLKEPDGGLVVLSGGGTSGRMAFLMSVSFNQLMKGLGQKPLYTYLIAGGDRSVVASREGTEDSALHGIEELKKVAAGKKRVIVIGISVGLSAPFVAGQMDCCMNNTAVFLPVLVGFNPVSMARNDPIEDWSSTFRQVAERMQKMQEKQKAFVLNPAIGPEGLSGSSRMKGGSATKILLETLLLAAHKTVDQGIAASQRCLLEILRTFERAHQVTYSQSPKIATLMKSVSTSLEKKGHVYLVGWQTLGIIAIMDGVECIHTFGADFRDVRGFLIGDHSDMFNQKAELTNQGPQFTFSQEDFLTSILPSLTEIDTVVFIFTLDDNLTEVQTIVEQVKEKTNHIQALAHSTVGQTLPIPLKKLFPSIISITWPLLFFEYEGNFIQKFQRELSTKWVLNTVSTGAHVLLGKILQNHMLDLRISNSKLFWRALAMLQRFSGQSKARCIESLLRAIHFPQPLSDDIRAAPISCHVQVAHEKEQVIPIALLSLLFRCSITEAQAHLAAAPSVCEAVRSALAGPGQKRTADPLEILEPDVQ
- assay.remarks: qHTS assay for inhibitors of recombinant human GCK-GKRP interaction: HTRF assay (AID 743207)
- measurement.conditions: recombinant GCK-GKRP HTRF binding, 60 min, with sorbitol-6-phosphate; series mostly up to 57.5 µM
Calls of active or inactive are those of the source. Calls come from the whole dose curve; as a rule, active = well fitted curve in the direction sought with a large enough effect; inconclusive = small, poorly fitted or top-dose-only effect, or another doubt; inactive = no such curve, though single readings can be large or run the other way.
property: outcome

Known outcome results, listed for orientation:
- compound: "Cc1cc(C)c(/C=C2\\C(=O)Nc3ccccc32)[nH]1"
  result: "inactive"
- compound: "C[N+](C)(C)CCOC(N)=O"
  result: "inactive"
- compound: "CCO/C([O-])=N/c1c[n+](N2CCOCC2)no1"
  result: "inactive"
- compound: "C(=C\\c1ccccc1)/CN1CCN(C(c2ccccc2)c2ccccc2)CC1"
  result: "inactive"
- compound: "CC(=O)Oc1cc(C(C)C)c(OCCN(C)C)cc1C"
  result: "inactive"
- compound: "CN1CCN(C2=Nc3ccccc3Oc3ccc(Cl)cc32)CC1"
  result: "inactive"
- compound: "CCCCNC(=O)NS(=O)(=O)c1ccc(C)cc1"
  result: "inactive"
- compound: "O=C(O)CN(CCOCCOCCN(CC(=O)O)CC(=O)O)CC(=O)O"
  result: "inactive"
- compound: "CO[C@@]1(NC(=O)CSCC#N)C(=O)N2C(C(=O)O)=C(CSc3nnnn3C)CS[C@@H]21"
  result: "inactive"
- compound: "O=C(CCCN1CCC(O)(c2cccc(C(F)(F)F)c2)CC1)c1ccc(F)cc1"
  result: "inactive"

// outcome lookup, key: CCCN(CCC)CCc1cccc2c1CC(=O)N2
inactive

// outcome lookup, key: CCCCNc1ccc(C(=O)OCCN(C)C)cc1
inactive

###

- target.entity: Cytochrome P450 1A2 (Homo sapiens) (UniProt P05177)
- Sequence (P05177 whole entry, looked up): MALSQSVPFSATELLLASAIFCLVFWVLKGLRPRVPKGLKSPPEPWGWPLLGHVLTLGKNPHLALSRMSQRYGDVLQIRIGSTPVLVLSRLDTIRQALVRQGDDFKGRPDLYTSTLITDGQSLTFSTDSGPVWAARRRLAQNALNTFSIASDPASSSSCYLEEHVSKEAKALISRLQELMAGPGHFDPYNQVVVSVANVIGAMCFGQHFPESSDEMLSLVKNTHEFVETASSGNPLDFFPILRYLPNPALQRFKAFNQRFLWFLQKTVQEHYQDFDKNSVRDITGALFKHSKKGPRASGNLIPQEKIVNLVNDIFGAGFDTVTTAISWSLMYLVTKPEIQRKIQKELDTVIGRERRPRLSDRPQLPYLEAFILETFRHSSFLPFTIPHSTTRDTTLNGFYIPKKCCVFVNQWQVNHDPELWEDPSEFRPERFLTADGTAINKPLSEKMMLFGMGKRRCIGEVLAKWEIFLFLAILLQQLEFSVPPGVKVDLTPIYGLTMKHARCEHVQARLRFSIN
- assay.remarks: p450-cyp1a2 (AID 410)
- measurement.conditions: recombinant CYP1A2, luciferin-ME demethylation, luminescence; series mostly up to 57 µM
Results filed as inconclusive are left out. Calls of active or inactive are those of the source. Calls come from the whole dose curve.
Write down one outcome, taken from active, inactive

Can you look up the reported call for CN1CCN(C2=Nc3ccccc3Oc3ccc(Cl)cc32)CC1 for me?
active

Can you look up the reported call for NCCCNCCSP(=O)(O)O for me?
inactive

Can you look up the reported call for CN(C)C(=O)Oc1cccc([N+](C)(C)C)c1 for me?
inactive

Can you look up the reported call for CC[N+](C)(C)c1cccc(O)c1 for me?
inactive

Can you look up the reported call for CCCN(CCC)CCc1cccc2c1CC(=O)N2 for me?
inactive

Can you look up the reported call for Brc1c(NC2=NCCN2)ccc2nccnc12 for me?
inactive

Can you look up the reported call for CCN(CC)CCNC(=O)c1cc(S(C)(=O)=O)ccc1OC for me?
inactive

###

- Test system: HeLa
- assay.remarks: Primary qHTS to identify gynecologic anti-cancer compounds using libraries of approved drugs and bioactive compounds (AID 1345084); note: nearly all actives have a fitted effect of over 55% in size
- measurement.conditions: Gynecologic cancer cell panel viability, ATPlite luminescence, 48 h; series mostly up to 57.5 µM
Inconclusive results are not listed. Calls of active or inactive are those of the source. The call rests on the fitted dose curve; in most records, active means well fitted cell-killing curve with a large enough effect; inconclusive means small, poorly fitted or top-dose-only effect, or effect the other way; inactive means flat fitted curve, though single readings scatter.
property: activity change, negative = cytotoxicity

Known activity change, negative = cytotoxicity results, listed for orientation:
- compound: "CCc1cccc(N(C)C(N)=Nc2cccc3ccccc23)c1"
  activity change, negative = cytotoxicity: "inactive"
- compound: "CCNC(=O)N1CCN(CCCC(c2ccc(F)cc2)c2ccc(F)cc2)CC1"
  activity change, negative = cytotoxicity: "inactive"
- compound: "NC(=Nc1ccccc1)Nc1ccccc1"
  activity change, negative = cytotoxicity: "inactive"
- compound: "Cc1ccc(S(=O)(=O)NC(=O)NN2CCCCCC2)cc1"
  activity change, negative = cytotoxicity: "inactive"
- compound: "CCCOc1ccccc1-c1nc2n[nH]nc2c(=O)[nH]1"
  activity change, negative = cytotoxicity: "inactive"
- compound: "Cc1nnc(SCC2=C(C(=O)O)N3C(=O)[C@@H](NC(=O)Cn4cnnn4)[C@H]3SC2)s1"
  activity change, negative = cytotoxicity: "inactive"

// activity change, negative = cytotoxicity lookup, key: CN1C[C@H](C(=O)N[C@]2(C)O[C@@]3(O)[C@@H]4CCCN4C(=O)[C@H](Cc4ccccc4)N3C2=O)C[C@@H]2c3cccc4[nH]cc(c34)C[C@H]21
inactive

// activity change, negative = cytotoxicity lookup, key: COc1ccc(CN(CCN(C)C)c2ccccn2)cc1
inactive

// activity change, negative = cytotoxicity lookup, key: COC(=O)[C@@H](N)Cc1ccc(O)c(O)c1
inactive

// activity change, negative = cytotoxicity lookup, key: Nc1c2c(nc3ccccc13)CCCC2O (centres undefined)
inactive

// activity change, negative = cytotoxicity lookup, key: Cc1scc2c1N(C(=O)CN1CCN(C)CC1)c1ccccc1NC2=O
inactive

// activity change, negative = cytotoxicity lookup, key: COc1cc(Cc2cnc(N)nc2N)cc(OC)c1OC
inactive

// activity change, negative = cytotoxicity lookup, key: CCn1ccnc1CC1COc2ccccc2O1 (centres undefined)
inactive

// activity change, negative = cytotoxicity lookup, key: Fc1ccc(C(c2ccc(F)cc2)N2CCN(C/C=C/c3ccccc3)CC2)cc1
inactive
